Reference for the values: patent US20240166635A1

- TARGET_UNDER_TEST: CDK1/CyclinB (Homo sapiens (Human))
- ASSAY_COMMENT: CDK1/CyclinB kinase inhibitory activity (Caliper mobility shift)
- SETUP_CONDITIONS: read-out: CDK1/Cyclin B1 IC50
pIC50: −log10 of the molar value.
EXPERIMENTAL_ENDPOINT: pIC50

// known answers, use as guide
[2H]C([2H])([2H])NS(=O)(=O)c1ccc(Nc2ncc(C(F)(F)F)c(OC3COCCC3O)n2)cc1 (single isomer, unassigned) [Example 117a]    7.00 to 8.00
N#Cc1cnc(Nc2ccc(S(=O)(=O)NC3CC(F)(F)C3)cc2)nc1OC1CCCCC1O (single isomer, unassigned) [Example 32b]    6.00 to 7.00

Kindly indicate its recorded pIC50. Item: NS(=O)(=O)c1ccc(Nc2ncc(C(F)(F)F)c(OC3CCCCCC3O)n2)cc1 (single isomer, unassigned) [Example 118a] > 8.00

Let me know recorded pIC50 for CC1(O)COCCC1Oc1nc(NC2CCN(S(C)(=O)=O)CC2)ncc1C#N (single isomer, unassigned) [Example 45b] , thanks. ≤ 6.00

Using the record for `N#Cc1cnc(Nc2ccc(S(N)(=O)=O)cc2)nc1-c1cccc(F)c1` , state its measured pIC50. 7.00 to 8.00

----------
- TARGET_UNDER_TEST: CDK4/Cyclin D1 (Homo sapiens (Human), UniProt P11802)
- Sequence (P11802 whole entry): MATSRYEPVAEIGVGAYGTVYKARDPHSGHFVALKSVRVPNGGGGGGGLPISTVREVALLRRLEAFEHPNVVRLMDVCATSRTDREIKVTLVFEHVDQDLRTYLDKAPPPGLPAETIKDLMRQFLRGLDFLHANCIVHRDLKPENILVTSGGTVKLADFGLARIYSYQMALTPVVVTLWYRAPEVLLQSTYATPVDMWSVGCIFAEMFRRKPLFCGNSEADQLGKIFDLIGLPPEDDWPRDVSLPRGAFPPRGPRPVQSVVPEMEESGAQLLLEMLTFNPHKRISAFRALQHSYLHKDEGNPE
- Sequence (P24385 whole entry partner): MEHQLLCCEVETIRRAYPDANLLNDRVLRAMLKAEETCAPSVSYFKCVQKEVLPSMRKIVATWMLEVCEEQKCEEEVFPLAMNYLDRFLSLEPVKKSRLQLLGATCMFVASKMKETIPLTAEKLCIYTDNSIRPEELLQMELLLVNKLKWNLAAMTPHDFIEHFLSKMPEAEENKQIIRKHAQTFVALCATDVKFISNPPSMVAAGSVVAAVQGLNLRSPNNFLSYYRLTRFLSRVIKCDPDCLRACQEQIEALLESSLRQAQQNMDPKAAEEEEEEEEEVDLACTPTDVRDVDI
- ASSAY_COMMENT: CDK4/CyclinD1 kinase inhibitory activity (Caliper mobility shift)
EXPERIMENTAL_ENDPOINT: IC50

The following molecules have reported results that may help.
CNS(=O)(=O)c1ccc(Nc2ncc(C#N)c(OC3CCCC3(C)O)n2)cc1 (single isomer, unassigned) [Example 34a]    10 to 100 nM
CC1(O)COCCC1Oc1nc(NC2CCN(S(C)(=O)=O)CC2)ncc1C(F)(F)F (single isomer, unassigned) [Example 124b]    100 to 1000 nM
CNS(=O)(=O)c1ccc(Nc2ncc(C(F)(F)F)c(O[C@H]3CCOC[C@H]3O)n2)c(F)c1 (single isomer, unassigned) [Example 101b]    ≥ 1000 nM

Now consider the entry below.
Let me know recorded IC50 for Cn1cc(S(=O)(=O)N2CCC(Nc3ncc(C#N)c(OC4CC5(CCC5)C4)n3)CC2)cn1 [Example 59] , thanks. < 10 nM

----------
The following molecules are shown together with reported pIC50 values.
- TARGET_UNDER_TEST: CDK9/CyclinT1 (Homo sapiens (Human), UniProt P50750)
- Sequence (P50750 whole entry): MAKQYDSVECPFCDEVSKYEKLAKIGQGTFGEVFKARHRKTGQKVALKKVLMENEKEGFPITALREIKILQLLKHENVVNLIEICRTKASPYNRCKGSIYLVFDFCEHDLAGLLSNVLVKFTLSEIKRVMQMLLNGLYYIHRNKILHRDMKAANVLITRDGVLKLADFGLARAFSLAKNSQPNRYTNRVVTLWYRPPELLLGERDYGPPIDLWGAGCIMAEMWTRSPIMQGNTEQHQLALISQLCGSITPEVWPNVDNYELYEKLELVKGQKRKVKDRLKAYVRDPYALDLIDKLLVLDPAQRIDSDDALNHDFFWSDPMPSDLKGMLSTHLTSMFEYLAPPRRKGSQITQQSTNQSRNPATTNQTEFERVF
- Sequence (O60563 whole entry partner): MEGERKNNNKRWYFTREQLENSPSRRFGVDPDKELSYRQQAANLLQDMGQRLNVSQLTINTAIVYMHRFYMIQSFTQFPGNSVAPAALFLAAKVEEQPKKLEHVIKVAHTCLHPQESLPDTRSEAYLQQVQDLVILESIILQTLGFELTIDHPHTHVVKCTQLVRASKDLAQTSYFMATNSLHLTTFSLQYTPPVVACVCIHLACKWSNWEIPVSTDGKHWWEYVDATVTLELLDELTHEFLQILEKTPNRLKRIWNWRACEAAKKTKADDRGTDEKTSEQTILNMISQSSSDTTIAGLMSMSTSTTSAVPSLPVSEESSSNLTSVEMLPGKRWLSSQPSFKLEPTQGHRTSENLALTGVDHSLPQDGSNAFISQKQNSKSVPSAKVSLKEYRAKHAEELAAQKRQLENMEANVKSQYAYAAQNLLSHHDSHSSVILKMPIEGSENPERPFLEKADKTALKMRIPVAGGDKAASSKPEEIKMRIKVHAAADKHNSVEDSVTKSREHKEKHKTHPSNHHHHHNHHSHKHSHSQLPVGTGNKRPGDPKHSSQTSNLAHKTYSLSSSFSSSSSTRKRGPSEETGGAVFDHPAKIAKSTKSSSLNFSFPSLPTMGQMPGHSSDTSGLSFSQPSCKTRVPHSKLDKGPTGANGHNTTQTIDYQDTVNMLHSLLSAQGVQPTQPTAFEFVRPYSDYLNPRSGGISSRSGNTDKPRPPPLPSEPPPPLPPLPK
- ASSAY_COMMENT: CDK9/CyclinT1 kinase inhibitory activity (Caliper mobility shift)
- SETUP_CONDITIONS: read-out: CDK9/Cyclin T1 IC50
pIC50: −log10 of the molar value.

Below, each entry is followed by its recorded pIC50 result.
NS(=O)(=O)c1ccc(Nc2ncc(C(F)(F)F)c(O[C@H]3[C@@H]4CC[C@@H](C4)[C@H]3O)n2)cc1 (single isomer, unassigned) [Example 113a]    6.00 to 7.00
CC1CCCC1Oc1nc(Nc2ccc(S(N)(=O)=O)cc2)ncc1C#N (stereo not shown)    7.00 to 8.00
NS(=O)(=O)c1ccc(Nc2ncc(C(F)(F)F)c(OC3CCCCCC3O)n2)cc1 (single isomer, unassigned) [Example 118b]    7.00 to 8.00
CNS(=O)(=O)c1ccc(Nc2ncc(Cl)c(OC3CCCC3O)n2)cc1 (single isomer, unassigned) [Example 137a]    6.00 to 7.00
CC1(O)CCC(F)(F)CC1Oc1nc(NC2CCN(S(C)(=O)=O)CC2)ncc1C#N (single isomer, unassigned) [Example 46b]    7.00 to 8.00

Supply measured pIC50 of CC1(O)CCCC1Oc1nc(NC2CCN(S(=O)(=O)CC3CC3)CC2)ncc1C#N (single isomer, unassigned) [Example 38a] in your reply. 6.00 to 7.00

Kindly indicate its recorded pIC50. Item: N#Cc1cnc(Nc2ccc(S(N)(=O)=O)cc2)nc1OCC1CCCC1O (single isomer, unassigned) [Example 19b] 6.00 to 7.00

Could you please provide reported pIC50 for Cn1cc(S(=O)(=O)N2CCC(Nc3ncc(Br)c(OC4CCCCC4O)n3)CC2)cn1 (single isomer, unassigned) [Example 144b] ? Thanks! 6.00 to 7.00

----------
- TARGET_UNDER_TEST: CDK2/CyclinE1 (Homo sapiens (Human), UniProt P24941)
- ASSAY_COMMENT: CDK2/CyclinE1 kinase inhibitory activity (Caliper mobility shift)
- SETUP_CONDITIONS: read-out: CDK2/Cyclin El IC50
EXPERIMENTAL_ENDPOINT: IC50

CC(C)NS(=O)(=O)c1ccc(Nc2ncc(C#N)c(OC3CCCC3(C)O)n2)cc1 (single isomer, unassigned) [Example 35a]    < 0.01 µM

Provide the reported IC50 (system: CDK2/CyclinE1 (Homo sapiens (Human), UniProt P24941)) for CC(C)NS(=O)(=O)c1ccc(Nc2ncc(Cl)c(OC3CCCC3O)n2)cc1 (single isomer, unassigned) [Example 138b] < 0.01 µM

Write IC50 of C[C@@H]1C[C@@H](O)CCN1c1nc(Nc2ccc(S(N)(=O)=O)cc2)ncc1C#N [Example 76] ; system used: CDK2/CyclinE1 (Homo sapiens (Human), UniProt P24941) 0.01 to 0.1 µM

Answer with IC50 of CC1(O)COCCC1Oc1nc(NC2CCN(S(C)(=O)=O)CC2)ncc1C#N (single isomer, unassigned) [Example 45b] measured for CDK2/CyclinE1 (Homo sapiens (Human), UniProt P24941). 0.1 to 1 µM

----------
- TARGET_UNDER_TEST: CDK9/CyclinT1 (Homo sapiens (Human), UniProt P50750)
- ASSAY_COMMENT: CDK9/CyclinT1 kinase inhibitory activity (Caliper mobility shift)
- SETUP_CONDITIONS: read-out: CDK9/Cyclin T1 IC50
EXPERIMENTAL_ENDPOINT: IC50

Solved cases (3 shown):
CC(C)NS(=O)(=O)c1ccc(Nc2ncc(C#N)c(OC3CCCCC3O)n2)cc1 (single isomer, unassigned) [Example 30b]    ≥ 1000 nM
CC(C)CS(=O)(=O)N1CCC(Nc2ncc(C#N)c(OC3CCCC3(C)O)n2)CC1 (single isomer, unassigned) [Example 39b]    ≥ 1000 nM
Cn1cc(S(=O)(=O)N2CCC(Nc3ncc(Br)c(OC4CCCCC4O)n3)CC2)cn1 (single isomer, unassigned) [Example 144a]    ≥ 1000 nM

Next up:
Look up IC50 of N#Cc1cnc(Nc2ccc(S(N)(=O)=O)cc2)nc1N1CCC[C@H](F)C1 [Example 81] and report it. 100 to 1000 nM

----------
- TARGET_UNDER_TEST: CDK2/CyclinE1 (Homo sapiens (Human))
- ASSAY_COMMENT: CDK2/CyclinE1 kinase inhibitory activity (Caliper mobility shift)
- SETUP_CONDITIONS: read-out: CDK2/Cyclin El IC50
pIC50: −log10 of the molar value.
EXPERIMENTAL_ENDPOINT: pIC50

CNS(=O)(=O)c1ccc(Nc2ncc(Cl)c(OC3CCCC3O)n2)cc1 (single isomer, unassigned) [Example 137a]    > 8.00
Cn1cc(S(=O)(=O)N2CCC(Nc3ncc(C#N)c(OC4CC5(CCC5)C4)n3)CC2)cn1 [Example 59]    > 8.00
[2H]C([2H])([2H])NS(=O)(=O)c1ccc(Nc2ncc(CC)c(OC3CCCC3O)n2)cc1 (single isomer, unassigned) [Example 149b]    7.00 to 8.00
[2H]C([2H])([2H])NS(=O)(=O)c1ccc(Nc2ncc(C#N)c(OC3CCCOCC3)n2)cc1 (single isomer, unassigned) [Example 33a]    > 8.00
[2H]C([2H])([2H])NS(=O)(=O)c1ccc(Nc2ncc(Cl)c(OC3COCC3(C)O)n2)cc1 (single isomer, unassigned) [Example 140b]    7.00 to 8.00

Return pIC50 (reported value) for this compound: N#Cc1cnc(Nc2ccc(S(N)(=O)=O)cc2)nc1OCC1CCCCC1 [Example 13] 7.00 to 8.00

Consider the compound [2H]C1([2H])CC(O)C(Oc2nc(Nc3ccc(S(=O)(=O)NC([2H])([2H])[2H])cc3)ncc2C(F)(F)F)C1 (single isomer, unassigned) [Example 110a] . State its measured pIC50. > 8.00

----------
- TARGET_UNDER_TEST: CDK1/CyclinB (Homo sapiens (Human), UniProt P06493)
- Sequence (P06493 whole entry): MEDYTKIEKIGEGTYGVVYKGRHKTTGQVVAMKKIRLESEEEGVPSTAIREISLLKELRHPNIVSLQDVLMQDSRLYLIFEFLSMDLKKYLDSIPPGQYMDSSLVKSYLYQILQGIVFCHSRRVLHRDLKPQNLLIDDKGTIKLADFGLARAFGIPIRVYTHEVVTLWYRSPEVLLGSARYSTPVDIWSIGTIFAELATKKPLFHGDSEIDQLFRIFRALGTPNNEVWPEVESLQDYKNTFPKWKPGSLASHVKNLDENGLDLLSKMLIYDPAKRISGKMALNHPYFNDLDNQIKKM
- Sequence (P14635 whole entry partner): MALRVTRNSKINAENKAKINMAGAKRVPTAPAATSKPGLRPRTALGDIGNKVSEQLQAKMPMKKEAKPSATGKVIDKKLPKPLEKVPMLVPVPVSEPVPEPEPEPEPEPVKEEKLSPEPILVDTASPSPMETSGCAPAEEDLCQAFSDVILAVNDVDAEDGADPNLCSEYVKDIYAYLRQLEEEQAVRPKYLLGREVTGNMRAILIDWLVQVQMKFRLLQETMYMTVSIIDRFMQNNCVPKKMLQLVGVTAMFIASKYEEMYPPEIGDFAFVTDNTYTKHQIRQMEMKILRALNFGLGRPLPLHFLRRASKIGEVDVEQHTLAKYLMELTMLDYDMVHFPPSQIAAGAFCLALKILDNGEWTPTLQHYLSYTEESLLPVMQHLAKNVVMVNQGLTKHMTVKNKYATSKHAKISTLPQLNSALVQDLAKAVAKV
- ASSAY_COMMENT: CDK1/CyclinB kinase inhibitory activity (Caliper mobility shift)
- SETUP_CONDITIONS: read-out: CDK1/Cyclin B1 IC50
Entries and their IC50 values follow.

CS(=O)(=O)N1CCC(Nc2ncc(C(F)(F)F)c(OC3CCCCC3O)n2)CC1 (single isomer, unassigned) [Example 120b]    100 to 1000 nM
[2H]C([2H])([2H])NS(=O)(=O)c1ccc(Nc2ncc(CC)c(OC3CCCC3O)n2)cc1 (single isomer, unassigned) [Example 149a]    10 to 100 nM
Cc1cnc(Nc2ccc(S(N)(=O)=O)cc2)nc1O[C@@H]1CCC[C@@H]1O (single isomer, unassigned) [Example 132b]    100 to 1000 nM
CNS(=O)(=O)c1ccc(Nc2ncc(C(F)(F)F)c(OC3CCCC3O)n2)cc1 (single isomer, unassigned) [Example 105a]    10 to 100 nM
C[C@]1(O)CC(F)(F)C[C@H]1Oc1nc(NC2CCN(S(C)(=O)=O)CC2)ncc1C#N (relative stereo) [Example 4a]    10 to 100 nM

Quote IC50 reported for CC(C)NS(=O)(=O)c1ccc(Nc2ncc(C#N)c(OC3CCCC3(C)O)n2)cc1 (single isomer, unassigned) [Example 35a] please. < 10 nM

Give IC50 for NS(=O)(=O)c1ccc(Nc2ncc(Br)c(OC3CCCC3O)n2)cc1 (single isomer, unassigned) [Example 141a] 10 to 100 nM

Please give measured IC50 of the following entry: [2H]C([2H])([2H])NS(=O)(=O)c1ccc(Nc2ncc(C(=C)F)c(O[C@@H]3CCC[C@@H]3O)n2)cc1 (single isomer, unassigned) [Example 135b] 100 to 1000 nM

Look up and state reported IC50 for `Cn1ccc(S(=O)(=O)N2CCC(Nc3ncc(C#N)c(OCC4(C)CCCC4)n3)CC2)n1` < 10 nM

In one line, give reported IC50 of the entry `C[C@@H]1CCCN(c2nc(Nc3ccc(S(N)(=O)=O)cc3)ncc2C#N)C1` . 100 to 1000 nM

Indicate the recorded IC50 value for this compound: N#Cc1cnc(Nc2ccc(S(N)(=O)=O)cc2)nc1N1CCCC(c2ccccc2)C1 (single isomer, unassigned) [Example 85] 10 to 100 nM

Give a short answer stating reported IC50 for [2H]C([2H])([2H])NS(=O)(=O)c1ccc(Nc2ncc(CC)c(OC3COCCC3(C)O)n2)cc1 (single isomer, unassigned) [Example 153a] . 10 to 100 nM

Annotate the compound `N#Cc1cnc(Nc2ccc(S(N)(=O)=O)cc2)nc1-c1ccccc1` with its measured IC50. 100 to 1000 nM

Supply reported IC50 belonging to this compound: N#Cc1cnc(Nc2ccc(S(=O)(=O)NC3CCC3)cc2)nc1OC1CCC[C@H]1O (mixture of isomers) 10 to 100 nM

# return recorded IC50 for input `C[C@H]1CCCCN1c1nc(Nc2ccc(S(N)(=O)=O)cc2)ncc1C#N` 10 to 100 nM

Quickly give me recorded IC50 for CC1(O)CCCC1Oc1nc(NC2CCN(S(=O)(=O)CC3CC3)CC2)ncc1C#N (single isomer, unassigned) [Example 38a] 10 to 100 nM

Tell me its IC50 given `CS(=O)(=O)N1CCC(Nc2ncc(C#N)c(N3CCCCC3)n2)CC1` as the entry. 100 to 1000 nM

Identify IC50 associated with the compound NS(=O)(=O)N1CCC(Nc2ncc(C(F)(F)F)c(OC3CCCCCC3O)n2)CC1 (single isomer, unassigned) [Example 122a] 100 to 1000 nM

Input CC(C)CS(=O)(=O)N1CCC(Nc2ncc(C#N)c(OC3CCCC3(C)O)n2)CC1 (single isomer, unassigned) [Example 39a] , output reported IC50. 10 to 100 nM

Write down IC50 measured for item CN1CCC(NS(=O)(=O)c2ccc(Nc3ncc(Cl)c(OC4CCCC4O)n3)cc2)CC1 (single isomer, unassigned) [Example 139a] 10 to 100 nM

Specify measured IC50 for CC(C)NS(=O)(=O)c1ccc(Nc2ncc(C#N)c(OC3CCC(O)C3)n2)cc1 (single isomer, unassigned) [Example 29b] . 10 to 100 nM
